src = paper PMC4336329

Please provide measured hERG current change (%, negative = inhibition) at 10uM for the entries that follow.
biological target: human ether-à-go-go-related gene (hERG) potassium channel (human, UniProt Q12809); test: primary screen, population patch clamp on CHO cells stably expressing hERG; higher = less effect of the substance;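 also: peak tail current of the secondary pulse compared with the same well before compound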
Sequence (Q12809 whole entry, looked up): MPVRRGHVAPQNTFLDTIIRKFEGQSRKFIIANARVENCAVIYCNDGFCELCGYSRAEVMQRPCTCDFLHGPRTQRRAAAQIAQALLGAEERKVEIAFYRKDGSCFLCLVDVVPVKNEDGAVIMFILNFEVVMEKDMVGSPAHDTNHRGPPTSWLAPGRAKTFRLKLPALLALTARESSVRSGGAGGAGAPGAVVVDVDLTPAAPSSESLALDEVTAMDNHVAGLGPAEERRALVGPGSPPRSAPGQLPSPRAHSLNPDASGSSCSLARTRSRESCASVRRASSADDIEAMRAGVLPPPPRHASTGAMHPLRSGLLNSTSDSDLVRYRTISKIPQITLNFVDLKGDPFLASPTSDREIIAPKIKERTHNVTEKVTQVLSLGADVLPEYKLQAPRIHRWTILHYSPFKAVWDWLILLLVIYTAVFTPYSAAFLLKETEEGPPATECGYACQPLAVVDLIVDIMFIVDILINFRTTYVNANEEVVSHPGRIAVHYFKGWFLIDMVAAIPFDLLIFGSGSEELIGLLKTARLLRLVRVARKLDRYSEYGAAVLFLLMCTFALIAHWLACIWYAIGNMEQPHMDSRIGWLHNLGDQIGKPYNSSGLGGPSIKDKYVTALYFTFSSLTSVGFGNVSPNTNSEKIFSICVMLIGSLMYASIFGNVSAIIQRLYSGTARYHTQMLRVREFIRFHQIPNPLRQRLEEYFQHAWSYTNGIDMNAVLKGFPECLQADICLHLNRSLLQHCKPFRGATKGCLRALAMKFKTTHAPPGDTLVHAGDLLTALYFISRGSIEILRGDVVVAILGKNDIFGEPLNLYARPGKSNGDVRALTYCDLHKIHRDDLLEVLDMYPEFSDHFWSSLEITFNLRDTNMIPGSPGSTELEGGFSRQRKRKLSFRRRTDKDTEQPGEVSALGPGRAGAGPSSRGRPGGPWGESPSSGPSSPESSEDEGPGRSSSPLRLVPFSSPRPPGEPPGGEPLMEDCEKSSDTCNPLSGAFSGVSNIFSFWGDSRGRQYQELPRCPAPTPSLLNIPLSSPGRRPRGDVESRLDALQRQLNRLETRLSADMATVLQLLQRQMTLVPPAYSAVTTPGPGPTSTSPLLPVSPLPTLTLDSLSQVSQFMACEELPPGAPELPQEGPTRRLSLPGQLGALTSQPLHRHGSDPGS
In all, about 310,000 compounds went through this assay and about 14,000 (4.5%) showed an effect of 50% or more. Effects have a minus sign here. This is one part of a sample in which strong results are shown more often than they occur.
Give bare numbers, in %.

O=C(OCn1ncc(Cl)c(Cl)c1=O)c1ccc(F)cc1	-3.74
O=C(OCn1ncc(Br)c(Br)c1=O)c1c(F)cccc1F	14.9
COc1cc(OC)c2ccc(=O)oc2c1C(CC(=O)N1CCCC(C)C1)c1ccc2c(c1)OCO2 (centres unmarked)	4.24
O=C(OCn1ncc(Br)c(Br)c1=O)c1ccc(F)cc1	-51.4

Moving on to another compound below.
Q) So what's the measured hERG current change (%, negative = inhibition) at 10uM for this one? COc1cc(OC)c2ccc(=O)oc2c1C(CCN1CCCC(C)C1)c1ccc(N(C)C)cc1 (centres unmarked)
A) -10.6
